Assay: Hemolytic activity against human RBC at 6 uM after 30 mins relative to control
Assay type: ADME, cell-based, Erythrocyte
Settings: red blood cells (RBC), read-out: Activity

# compound, hemolysis at 0.5 h, 6 µM [%]
records = [
    ("C[C@@H]1CC[C@@]2(OC1)O[C@H]1[C@@H](O)[C@H]3[C@@H]4CC[C@H]5C[C@@H](O[C@@H]6O[C@H](CO)[C@H](O[C@@H]7O[C@H](CO)C(O)[C@H](O[C@@H]8OC[C@@H](O)[C@H](O)[C@H]8O)[C@H]7O[C@@H]7O[C@H](CO)[C@H](O)[C@H](O[C@@H]8O[C@H](CO)[C@@H](O)[C@H](O)[C@H]8O)[C@H]7O)[C@H](O)[C@H]6O)[C@H](O)C[C@]5(C)[C@H]4CC[C@]3(C)[C@H]1[C@@H]2C (stereo partly specified)", 68),
]

====

Experiment: Hemolytic activity against human RBC at 3 uM after 30 mins relative to control
Type: ADME, cell-based, Erythrocyte
Conditions: red blood cells (RBC), read-out: Activity

# molecule, hemolysis at 0.5 h, 3 µM, %
data = [
    ("C[C@@H]1CC[C@@]2(OC1)O[C@H]1[C@@H](O)[C@H]3[C@@H]4CC[C@H]5C[C@@H](O[C@@H]6O[C@H](CO)[C@H](O[C@@H]7O[C@H](CO)C(O)[C@H](O[C@@H]8OC[C@@H](O)[C@H](O)[C@H]8O)[C@H]7O[C@@H]7O[C@H](CO)[C@H](O)[C@H](O[C@@H]8O[C@H](CO)[C@@H](O)[C@H](O)[C@H]8O)[C@H]7O)[C@H](O)[C@H]6O)[C@H](O)C[C@]5(C)[C@H]4CC[C@]3(C)[C@H]1[C@@H]2C (stereo partly specified) [DIGITONIN]", 22),
]
